FYI, the data here is from ChEMBL document CHEMBL4373694.

Quick reference for IC50 among some compounds
- Tested on: PBMC
- experiment_summary: Cytotoxicity against human PBMC cells assessed as reduction in cell viability by CellTiter Glo assay
- Format: functional, cell-based
measured_property: IC50 (µM)

given_smiles: COc1ccc(C(=O)NCCn2cc(C(=O)N[C@@H](CC(C)C)B(O)O)nn2)c(OC)c1OC
measured_property: IC50
operator: =
reported_result: 0.1
//
given_smiles: Cc1ccc(C[C@H](NC(=O)c2nnn(Cc3ccccc3)c2C)B2O[C@@H]3C[C@@H]4C[C@@H](C4(C)C)[C@]3(C)O2)c(C)c1
measured_property: IC50
operator: >
reported_result: 10
//
given_smiles: C=CC(=O)N(CC(=O)N[C@@H](Cc1ccc(C)cc1C)B(O)O)c1ccccc1F
measured_property: IC50
operator: =
reported_result: 5.7
//
given_smiles: CC(C)C[C@H](NC(=O)c1cn(C2CCCCC2)nn1)B(O)O
measured_property: IC50
operator: =
reported_result: 7.3
//
given_smiles: CC(C)C[C@H](NC(=O)[C@H](Cc1ccccc1)NC(=O)c1cnccn1)B(O)O
measured_property: IC50
operator: =
reported_result: 0.0027

---

- experiment_summary: Inhibition of 20S proteasome beta 1c derived from human erythrocytes preincubated for 1 hr using Z-nLPnLD-Glo peptide as substrate by proteasome-glo caspase-like assay
pIC50: −log10 of the molar value.

given_smiles: CC(C)C[C@H](NC(=O)c1ncn(Cc2ccccc2)n1)B(O)O
operator: <
pIC50: 4.70

given_smiles: Cc1ccc(C[C@H](NC(=O)c2cn(-c3ccccc3)nn2)B2O[C@@H]3C[C@@H]4C[C@@H](C4(C)C)[C@]3(C)O2)c(C)c1
operator: <
pIC50: 4.70

given_smiles: CC(C)C[C@H](NC(=O)c1nnc(Cc2ccccc2)[nH]1)B(O)O
operator: =
pIC50: 7.21

given_smiles: COc1ccc(C[C@H](NC(=O)[C@H](C)NC(=O)CN2CCOCC2)C(=O)N[C@@H](Cc2ccccc2)C(=O)[C@@]2(C)CO2)cc1
operator: =
pIC50: 4.89

given_smiles: Cc1c(C(=O)N[C@@H](CC(C)C)B(O)O)nnn1Cc1ccccc1
operator: <
pIC50: 4.70

---

- Species: Homo sapiens
- experiment_summary: Selectivity ratio, ratio of IC50 for 20S proteasome beta 5c (unknown origin) to IC50 for human 20S proteasome beta 1i

given_smiles: C=CC(=O)N(CC(=O)N[C@@H](Cc1ccc(C)cc1C)B(O)O)c1ccccc1F
Ratio IC50: 1.1
--
given_smiles: COc1ccc(C(=O)NCCn2cc(C(=O)N[C@@H](CC(C)C)B(O)O)nn2)c(OC)c1OC
Ratio IC50: 5.2
--
given_smiles: COc1ccc(C[C@H](NC(=O)[C@H](C)NC(=O)CN2CCOCC2)C(=O)N[C@@H](Cc2ccccc2)C(=O)[C@@]2(C)CO2)cc1
Ratio IC50: 1.6
--
given_smiles: COC[C@H](NC(=O)c1cc(C)on1)C(=O)N[C@H](C(=O)N[C@@H](CC(C)C)C(=O)[C@@]1(C)CO1)C1CC1
Ratio IC50: 0.11

---

Some molecules, each annotated with its measured IC50.
- experiment_summary: Inhibition of 20S proteasome beta 1c derived from human erythrocytes preincubated for 1 hr using Z-nLPnLD-Glo peptide as substrate by proteasome-glo caspase-like assay

molecule: Cc1ccc(C[C@H](NC(=O)c2cn(Cc3ccccc3)nn2)B2O[C@@H]3C[C@@H]4C[C@@H](C4(C)C)[C@]3(C)O2)c(C)c1
IC50: > 20 µM

molecule: CC(C)C[C@H](NC(=O)c1cn(C)nn1)B1O[C@@H]2C[C@@H]3C[C@@H](C3(C)C)[C@]2(C)O1
IC50: > 20 µM

molecule: CC(C)C[C@H](NC(=O)[C@H](Cc1ccccc1)NC(=O)c1cnccn1)B(O)O [BORTEZOMIB]
IC50: 0.032 µM

molecule: O=C(N[C@@H](Cc1ccc(Cl)cc1)B(O)O)c1cnn(Cc2ccccc2)c1
IC50: > 20 µM
